Please respond with reported GI50 for every item in the list.
System: OVCAR-8 ovarian
Protocol text: NCI tumour cell line growth inhibition, 48 h

According to the records, this molecule `CC(=O)[O-].CC(=O)[O-].[Pt+2].c1cscn1.c1cscn1` displays GI50 of 31.3 µM

`CCOC(=O)c1cc(C#N)c(=O)n(/N=C(\C)c2ccncc2)c1O` has a reported GI50 of > 100 µM

Memo: `ClCc1cccc(Cn2cnc3c(NC45CC6CC(CC(C6)C4)C5)ncnc32)c1` , reported GI50: 17.8 µM

Form: molecule = `CC(C)(C#N)c1cc(Cn2cncn2)cc(C(C)(C)C#N)c1` ; GI50 = > 10000 µM

The reported GI50 of the molecule `C=C1C(=O)O[C@H]2[C@H]1CC/C(CNC(=O)c1cc3cc(OC)ccc3[nH]1)=C\CC[C@@]1(C)O[C@@H]21` was 2.06 µM

Lookup result for `COc1cc(Nc2nccc(Nc3ccc4c(C)[nH]nc4c3)n2)cc(OC)c1OC` ; measured GI50: 3.39 µM
